The values you see were collected from patent US9346761B2.

# SYSTEM TESTED: Full-length human PRMT1 isoform 1 (Homo sapiens, UniProt Q99873)
# Construct: GST-tagged PRMT1
# Sequence (Q99873 with tags, fused parts or gaps): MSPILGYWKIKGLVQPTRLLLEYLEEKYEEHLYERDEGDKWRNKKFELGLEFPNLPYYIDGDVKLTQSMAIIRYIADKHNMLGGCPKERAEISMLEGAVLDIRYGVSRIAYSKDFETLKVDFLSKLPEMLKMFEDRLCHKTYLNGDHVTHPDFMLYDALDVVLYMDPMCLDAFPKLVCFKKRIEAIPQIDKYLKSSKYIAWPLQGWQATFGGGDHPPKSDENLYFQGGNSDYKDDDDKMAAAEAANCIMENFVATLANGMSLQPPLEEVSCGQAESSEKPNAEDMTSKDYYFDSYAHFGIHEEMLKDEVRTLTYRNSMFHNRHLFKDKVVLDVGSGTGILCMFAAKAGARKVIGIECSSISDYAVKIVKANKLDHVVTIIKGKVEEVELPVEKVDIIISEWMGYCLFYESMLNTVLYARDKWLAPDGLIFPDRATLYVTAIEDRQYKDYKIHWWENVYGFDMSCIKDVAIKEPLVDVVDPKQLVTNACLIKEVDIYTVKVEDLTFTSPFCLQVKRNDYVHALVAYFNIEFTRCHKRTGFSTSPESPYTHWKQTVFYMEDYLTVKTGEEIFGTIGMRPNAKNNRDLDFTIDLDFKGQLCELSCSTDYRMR
# PROTOCOL: PRMT1 biochemical assay (3H-SAM Flashplate, peptide substrate)
MEASUREMENT LABEL: IC50

Prompt: Provide measured IC50 value, entry: CNCCN(C)Cc1n[nH]cc1-c1ccc(Oc2cccc(C(C)C)c2)cc1
Completion: < 0.1 µM

Prompt: Provide measured IC50 value, entry: CNCCN(C)Cc1n[nH]cc1-c1ccc(Oc2ccccc2)c(C#N)c1
Completion: < 0.1 µM

Prompt: Provide measured IC50 value, entry: CN(CCN)Cc1c[nH]nc1-c1ccc2c(c1)NC(=O)CO2
Completion: 0.101 to 1 µM

Prompt: Provide measured IC50 value, entry: CN(CCN)Cc1c[nH]nc1-c1ccc(N2CCNCC2)cc1
Completion: < 0.1 µM

Prompt: Provide measured IC50 value, entry: CCn1ncc(CN(C)CCNC)c1-c1ccc(F)cc1
Completion: 0.101 to 1 µM

Prompt: Provide measured IC50 value, entry: CNCCN(C)Cc1c[nH]nc1-c1ccc(OC)c(F)c1
Completion: < 0.1 µM

Prompt: Provide measured IC50 value, entry: CNC(=O)c1cc(-c2n[nH]cc2CN(C)CCN)ccc1Oc1ccccc1
Completion: < 0.1 µM

Prompt: Provide measured IC50 value, entry: COCCn1cc(CN(C)CCN(C)C)c(-c2ccc(F)cc2)n1
Completion: > 10 µM

Prompt: Provide measured IC50 value, entry: CNCCN(C)Cc1n[nH]cc1-c1ccc(Oc2ccccc2)c(C(=O)NC)c1
Completion: < 0.1 µM

Prompt: Provide measured IC50 value, entry: COc1ccc(-c2n[nH]cc2CN(C)CCN)cc1Cl
Completion: < 0.1 µM

Prompt: Provide measured IC50 value, entry: C=C(C)C(=O)Nc1cccc(-c2[nH]ncc2CN(C)CCNC)c1
Completion: 0.101 to 1 µM

Prompt: Provide measured IC50 value, entry: CNCCN(C)Cc1cn(CCCC(O)CO)nc1-c1ccc(F)cc1 (centres unmarked)
Completion: 3.01 to 10 µM

Prompt: Provide measured IC50 value, entry: CNCCN(C)Cc1c[nH]nc1-c1ccccc1OC
Completion: 0.101 to 1 µM

Prompt: Provide measured IC50 value, entry: CN(CCN)Cc1c[nH]nc1-c1cc(F)cc(Cl)c1
Completion: < 0.1 µM

Prompt: Provide measured IC50 value, entry: CN(CCN)Cc1n[nH]cc1-c1ccc(Cl)cc1
Completion: < 0.1 µM

Prompt: Provide measured IC50 value, entry: CCOc1ccc(-c2n[nH]cc2CN(C)CCN)cc1
Completion: < 0.1 µM

Prompt: Provide measured IC50 value, entry: CNCCN(C)Cc1cn(C2CCOC2)nc1-c1ccc(OC(C)C)cc1 (centres unmarked)
Completion: < 0.1 µM

Prompt: Provide measured IC50 value, entry: CNCCN(C)Cc1c[nH]nc1-c1cccc(OC)c1OC
Completion: 0.101 to 1 µM

Prompt: Provide measured IC50 value, entry: CN(CCN)Cc1c[nH]nc1-c1cc(Cl)ccc1F
Completion: 0.101 to 1 µM

Prompt: Provide measured IC50 value, entry: Cc1cc(C#N)ccc1-c1n[nH]cc1CN(C)CCN
Completion: < 0.1 µM

---

# SYSTEM TESTED: Human CARM1 (PRMT4) (Homo sapiens, UniProt Q86X55)
# Sequence (Q86X55 with tags, fused parts or gaps isoform Q86X55-1): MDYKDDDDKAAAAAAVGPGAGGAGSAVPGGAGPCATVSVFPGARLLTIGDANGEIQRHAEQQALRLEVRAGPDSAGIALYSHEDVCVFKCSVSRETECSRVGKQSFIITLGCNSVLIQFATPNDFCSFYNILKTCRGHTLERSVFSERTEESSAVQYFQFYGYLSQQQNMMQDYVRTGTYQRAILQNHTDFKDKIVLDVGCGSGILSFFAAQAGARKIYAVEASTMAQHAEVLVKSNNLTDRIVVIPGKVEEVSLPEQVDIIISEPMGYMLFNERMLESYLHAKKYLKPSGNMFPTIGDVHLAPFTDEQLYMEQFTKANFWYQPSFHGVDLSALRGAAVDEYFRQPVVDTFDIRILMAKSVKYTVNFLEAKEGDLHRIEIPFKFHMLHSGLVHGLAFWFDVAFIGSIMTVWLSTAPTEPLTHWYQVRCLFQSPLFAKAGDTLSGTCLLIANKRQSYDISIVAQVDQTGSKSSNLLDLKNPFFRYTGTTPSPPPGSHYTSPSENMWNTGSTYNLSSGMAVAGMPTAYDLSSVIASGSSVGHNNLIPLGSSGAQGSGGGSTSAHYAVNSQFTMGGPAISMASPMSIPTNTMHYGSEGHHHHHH
Task for the reader: assign each of the following compounds its reported IC50.

Prompt: Report IC50 on Human CARM1 (PRMT4) (Homo sapiens, UniProt Q86X55) for this entry: COc1ccc(-c2n[nH]cc2CN(C)CCN)cc1F
Completion: 1010 to 3000 nM

Prompt: Report IC50 on Human CARM1 (PRMT4) (Homo sapiens, UniProt Q86X55) for this entry: CN(CCN)Cc1c[nH]nc1-c1ccc(OC(F)F)cc1
Completion: 101 to 1000 nM

Prompt: Report IC50 on Human CARM1 (PRMT4) (Homo sapiens, UniProt Q86X55) for this entry: CN(CCN)Cc1cnn(C)c1-c1ccc(F)cc1
Completion: 101 to 1000 nM

Prompt: Report IC50 on Human CARM1 (PRMT4) (Homo sapiens, UniProt Q86X55) for this entry: CNCCN(C)Cc1c[nH]nc1-c1cccc(OC)c1OC
Completion: > 10000 nM

Prompt: Report IC50 on Human CARM1 (PRMT4) (Homo sapiens, UniProt Q86X55) for this entry: C=CC(=O)Nc1cccc(-c2[nH]ncc2CN(C)CCNC)c1
Completion: 1010 to 3000 nM

Prompt: Report IC50 on Human CARM1 (PRMT4) (Homo sapiens, UniProt Q86X55) for this entry: C=C(C)C(=O)Nc1cccc(-c2[nH]ncc2CN(C)CCNC)c1
Completion: > 10000 nM

Prompt: Report IC50 on Human CARM1 (PRMT4) (Homo sapiens, UniProt Q86X55) for this entry: COCCn1ncc(CN(C)CCN(C)C)c1-c1ccc(F)cc1
Completion: > 10000 nM

Prompt: Report IC50 on Human CARM1 (PRMT4) (Homo sapiens, UniProt Q86X55) for this entry: CN(CCN)Cc1c[nH]nc1-c1cccc(N(C)C)c1
Completion: 1010 to 3000 nM

Prompt: Report IC50 on Human CARM1 (PRMT4) (Homo sapiens, UniProt Q86X55) for this entry: Cc1cc(Cl)ccc1-c1n[nH]cc1CN(C)CCN
Completion: 3010 to 10000 nM

Prompt: Report IC50 on Human CARM1 (PRMT4) (Homo sapiens, UniProt Q86X55) for this entry: CCN(CCN)Cc1c[nH]nc1-c1ccc(F)cc1
Completion: 101 to 1000 nM

---

Assay read-out IC50; system under study: Full-length human PRMT3 (Homo sapiens).
Sequence (O60678 with tags, fused parts or gaps): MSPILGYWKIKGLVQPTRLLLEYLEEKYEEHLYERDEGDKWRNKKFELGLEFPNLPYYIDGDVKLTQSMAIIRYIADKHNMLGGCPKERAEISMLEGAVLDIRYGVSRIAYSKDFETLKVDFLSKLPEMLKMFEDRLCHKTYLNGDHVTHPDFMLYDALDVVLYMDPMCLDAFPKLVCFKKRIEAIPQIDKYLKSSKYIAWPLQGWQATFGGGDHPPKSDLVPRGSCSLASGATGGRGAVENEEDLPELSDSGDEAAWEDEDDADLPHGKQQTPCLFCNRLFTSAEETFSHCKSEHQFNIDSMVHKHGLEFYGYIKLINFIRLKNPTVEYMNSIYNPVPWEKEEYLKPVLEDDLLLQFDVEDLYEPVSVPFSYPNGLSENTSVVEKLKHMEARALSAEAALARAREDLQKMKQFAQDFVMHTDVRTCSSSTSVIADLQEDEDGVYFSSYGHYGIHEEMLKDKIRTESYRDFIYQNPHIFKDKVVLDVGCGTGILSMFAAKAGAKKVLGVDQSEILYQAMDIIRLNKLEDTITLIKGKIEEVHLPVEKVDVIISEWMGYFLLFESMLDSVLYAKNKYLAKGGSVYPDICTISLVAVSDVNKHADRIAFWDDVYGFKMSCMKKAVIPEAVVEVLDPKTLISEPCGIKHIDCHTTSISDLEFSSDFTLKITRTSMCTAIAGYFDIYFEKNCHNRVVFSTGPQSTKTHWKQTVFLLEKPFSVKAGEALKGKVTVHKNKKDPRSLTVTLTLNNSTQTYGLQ

Prompt: Provide measured IC50 value, entry: CNCCN(C)Cc1cn(CC2CCOCC2)nc1-c1ccc(F)cc1
Completion: > 10 µM

Prompt: Provide measured IC50 value, entry: CN(CCN)Cc1n[nH]cc1-c1ccc(OC(F)F)cc1
Completion: > 10 µM

Prompt: Provide measured IC50 value, entry: CN(CCN)Cc1cnn(CC2COC2)c1-c1ccc(F)cc1
Completion: > 10 µM

Prompt: Provide measured IC50 value, entry: CCN(CCNC)Cc1c[nH]nc1-c1ccc(F)cc1
Completion: 3.01 to 10 µM

Prompt: Provide measured IC50 value, entry: CN(CCN)Cc1c[nH]nc1-c1ccc(F)cc1F
Completion: > 10 µM

Prompt: Provide measured IC50 value, entry: COc1ccc(F)cc1-c1n[nH]cc1CN(C)CCN
Completion: > 10 µM

Prompt: Provide measured IC50 value, entry: CNCCN(C)Cc1c[nH]nc1-c1ccc(C)cc1C
Completion: > 10 µM

Prompt: Provide measured IC50 value, entry: CNCCN(C)Cc1c[nH]nc1-c1ccc(F)cc1
Completion: 3.01 to 10 µM

Prompt: Provide measured IC50 value, entry: CN(CCN)Cc1c[nH]nc1-c1ccc(Cl)cc1F
Completion: 3.01 to 10 µM

Prompt: Provide measured IC50 value, entry: CN(CCN)Cc1c[nH]nc1-c1cccc(C#N)c1
Completion: > 10 µM

Prompt: Provide measured IC50 value, entry: CN(CCN)Cc1cn(CC2COC2)nc1-c1ccc(F)cc1
Completion: > 10 µM

Prompt: Provide measured IC50 value, entry: CNCCN(C)Cc1c[nH]nc1-c1cccc(C#N)c1
Completion: > 10 µM

Prompt: Provide measured IC50 value, entry: CNCCN(C)Cc1cnn(C(C)C)c1-c1ccc(F)cc1
Completion: > 10 µM

Prompt: Provide measured IC50 value, entry: CNCCN(C)Cc1c[nH]nc1-c1ccc(CC#N)cc1
Completion: > 10 µM

Prompt: Provide measured IC50 value, entry: CN(CCN)Cc1cn(CC2CCOCC2)nc1-c1ccc(F)cc1
Completion: > 10 µM

Prompt: Provide measured IC50 value, entry: CC(C)c1ccc(-c2c[nH]nc2CN(C)CCN)cc1
Completion: > 10 µM

Prompt: Provide measured IC50 value, entry: COc1cc(Cl)cc(-c2n[nH]cc2CN(C)CCN)c1
Completion: 3.01 to 10 µM

Prompt: Provide measured IC50 value, entry: COCCn1cc(CN(C)CCN)c(-c2ccc(F)cc2)n1
Completion: > 10 µM

Prompt: Provide measured IC50 value, entry: CNCCN(C)Cc1c[nH]nc1-c1cccc(OC(F)(F)F)c1
Completion: > 10 µM

Prompt: Provide measured IC50 value, entry: CNCCN(C)Cc1c[nH]nc1-c1cccc(O)c1
Completion: > 10 µM

Prompt: Provide measured IC50 value, entry: CNCCN(C)Cc1cn[nH]c1-c1ccc(C#N)cc1
Completion: 1.01 to 3 µM
